Reported apparent KD of K4 kissing-loop reporter values for a set of sequences
test system: K4 kissing-loop RNA reporter; test: apparent KD of K4 kissing-loop reporter; higher = weaker reporter binding; conditions: Eterna round: R107; input ligand: tryptophan 2.4 mM;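 note: bound reporter read as fluorescence of individual clusters on recovered sequencing chips by microscopy, with normalized cluster intensities fitted with a binding model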

| Residues | Reading unit | apparent KD of K4 kissing-loop reporter |
| --- | --- | --- |
| AUUAAUUUCAGAGGAUAUCGUUAUUUUUUAUAUUUUAUUCAUUUAUGCAGUGAUGUUGCUAUUAUUCGAGAAGGCUGAUUUAUAA [JR_ExcFMNB_Sub004] | nM | 50.9 |
| UUGAGCCGGACCGAAGUCCGGCUCUGCGAGCGAGGACCGGUACGGCCGCCACUCGGUGCAGUGAUGUUGCAUGGCCGCAAGGCCG [#2 Exclusion - Tryptophan A Attempt #8 (HarryS)] | nM | 401 |
| UUUUUGGAGAAUUAUAGUGAUGUUAUGAAGAAGGAUAUCUAAAGAUGGAGAAGGUUUAAUAGUUAAGGGAUGGAGGGUGGGUGGG [ExFMNA.P] | nM | 194 |

---

tested on: MS2 coat protein; test: apparent KD of MS2 coat protein; designed switch direction (-1 OFF switch, 1 ON switch): -1; higher = weaker reporter binding; details: Eterna round: R95; input ligand: FMN 200 uM
Metric name: apparent KD of MS2 coat protein (nM)

| Residues | Test target | Metric name | Reading unit | Reading |
| --- | --- | --- | --- | --- |
| AUAUAAACAUAGGAUAUCGAAUUUAUCAUUUAACGAGAAGGAUGAACAUGAGGAUCACCCAUGUGGUAUCAUGG [Mat - Exclusion 6 - JL Mod - D5] (puzzle: Exclusion 6) | MS2 coat protein | apparent KD of MS2 coat protein | nM | 553 |
| ACAUGGAAGCAGGAUAUGCUUGUAUAAUUGAAAGCAGAAGGGCUAACAUGAGGAUCACCCAUGUAAGAGGUCUA [JR_E6_Sub060] (puzzle: Exclusion 6) | MS2 coat protein | apparent KD of MS2 coat protein | nM | 91 |
| CCAUCGUGUGUGAGGAUAUGCUGGUCCUUGGAUCAGCAGAAGGCACAUGAGGAUCACCCAUGUGAAGACGGUGG [JL bmx4 3.22] (puzzle: Brourd's mod of Exclusion 4) | MS2 coat protein | apparent KD of MS2 coat protein | nM | 48.7 |
| GGUUGGCGAGGAUAUACAUGAGGAUCACCCAUGUGAGAAAAUAGUGAGGAAAAGAAAAGUAGAAGGCGCUGACG [Mat - Exclusion 3 - Mod of Salish D54] (puzzle: Exclusion 3) | MS2 coat protein | apparent KD of MS2 coat protein | nM | 320 |
| CUUAGCCUAAAAUCACGCAAGCUUCUUGCUUGUCUUAAGACAUGAGGAUCACCCAUGUCCGGGCUGAACUUAUGGAA [Enonzave] (puzzle: Sensor v3, turn-off variant 2) | MS2 coat protein | apparent KD of MS2 coat protein | nM | 17.8 |
| CUGGUCCGAGGAUAUAUUAAGUGAUACAUGAGGAUCACCCAUGUUAUUUAAUGGAUGUAAAUAGAAGGCGGACUAG [Mat - Exclusion 5 - JL mod - D70] (puzzle: Exclusion 5) | MS2 coat protein | apparent KD of MS2 coat protein | nM | 51 |

---

test system: MS2 coat protein; assay: apparent KD of MS2 coat protein; designed switch direction (-1 OFF switch, 1 ON switch): -1; higher = weaker reporter binding; settings: Eterna round: R95; input ligand: FMN 200 uM
Kind request: treat 80 nM as inclusive, so apparent KD of MS2 coat protein at 80 nM or higher is Satisfied, anything lower is Not satisfied.

| Residues | Test target | Label class |
| --- | --- | --- |
| UCGUGGUUACGCUGCAGUUGCCUGAGCGGAGGCUCUGUGACAUGAGGAUCACCCAUGUAGCUUUUUGCUCAUCUUAA [JR_SV3TOV2_Sub040] (puzzle: Sensor v3, turn-off variant 2) | MS2 coat protein | Not satisfied |
| AAGAAGCAAGGAUAUACAACGGGCCACAGAGCCGAAGGGCAACAUGAGGAUCACCCAUGUAGAAGGUGCGUAAC [Lecebeqube] (puzzle: Exclusion 2) | MS2 coat protein | Satisfied |
| GCAUCCAGUGUGAGGAUAUACCUCUGGAUACAUAGGUAGAAGGCACAUGAGGAUCACCCAUGUCCUAAGGAUGC [Fiskers BMX 4 - 29] (puzzle: Brourd's mod of Exclusion 4) | MS2 coat protein | Satisfied |
| CGAUGUCUUCGGACAUCGAACAUGAGGAUCACCCAUGUAUAGAGCAGAUCUUCAUGCAAGCUUUUUGCUCGUCUUAU [Sensor v3 - turn-off variant 1 - 47] (puzzle: Sensor v3, turn-off variant 1) | MS2 coat protein | Satisfied |
| CCUCAACAGUAGGAUAUCAUCAAACUAUUGUGAUGAGAAGGACUGACAUGAGGAUCACCCAUGUUAACGUGAUA [Exclusion 6 - 6:a] (puzzle: Exclusion 6) | MS2 coat protein | Not satisfied |

Entry source: the supplement of paper PMC9170038
